system: Tau protein (wild-type K18) (Homo sapiens)
Construct: Tau protein (wild-type K18)
Sequence (P10636 561-685 limits assumed): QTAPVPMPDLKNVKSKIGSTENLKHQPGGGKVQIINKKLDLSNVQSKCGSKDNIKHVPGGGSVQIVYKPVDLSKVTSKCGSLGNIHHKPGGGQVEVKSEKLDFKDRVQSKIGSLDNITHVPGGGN
assay_name: Tau protein aggregation inhibition test (thioflavin T assay)
Type: biochemical
condition: 500 uM test compound; heparin/DTT-induced aggregation, 37° C. 5 days; ThT fluorescence vs tau-only control = 100%
quantity_kind: Tau aggregation remaining (ThT fluorescence, % of tau-only control)

molecule: CCN1C(=O)/C(=C/c2c[nH]c3ncccc23)NC1=S [DN204816]
system: Tau protein (wild-type K18) (Homo sapiens)
observed_value: 56.3 % of control
--
molecule: O=C1NC(=S)S/C1=C\c1ccoc1 [DN204298]
system: Tau protein (wild-type K18) (Homo sapiens)
observed_value: 33.817 % of control
--
molecule: CCN1C(=O)/C(=C/c2csc3ccccc23)SC1=S [DN205782]
system: Tau protein (wild-type K18) (Homo sapiens)
observed_value: 75.35 % of control
--
molecule: O=C1NC(=O)/C(=C/c2c[nH]c3cnccc23)S1 [DN204290]
system: Tau protein (wild-type K18) (Homo sapiens)
observed_value: 42.61 % of control
--
molecule: O=C1NC(=S)S/C1=C\c1csc2ccccc12 [DN204818]
system: Tau protein (wild-type K18) (Homo sapiens)
observed_value: 1.71 % of control

Parameter requested: Tau aggregation remaining (ThT fluorescence, % of tau-only control). Apply to each item below.
1. CCN1C(=O)/C(=C/c2c[nH]c3ccccc23)NC1=S [DN204811]
2. CCN1C(=O)/C(=C/c2csc3ccccc23)NC1=S [DN204810]
3. O=C1NC(=S)SC1Cc1ccsc1 (stereo not shown) [DN204306]
4. O=C1NC(=O)C(Cc2ccsc2)S1 (stereo not shown) [DN204293]
5. O=C1NC(=S)S/C1=C\c1c[nH]c2ccccc12 [DN204296]
6. O=C1NC(=S)S/C1=C\c1c[nH]c2cccnc12 [DN204808]
7. O=C1NC(=O)C(Cc2c[nH]c3ccccc23)S1 (stereo not shown) [DN204295]

["40.21 % of control", "65.66 % of control", "52.16 % of control", "58.22 % of control", "4.984 % of control", "16.09 % of control", "59.6 % of control"]

Parameter requested: Tau aggregation remaining (ThT fluorescence, % of tau-only control). Apply to each item below.
1. O=C1NC(=O)/C(=C/c2c[nH]c3cccnc23)S1 [DN204289]
2. O=C1NC(=S)S/C1=C\c1c[nH]c2ncccc12 [DN205355]
3. CCN1C(=O)/C(=C/c2c[nH]c3cccnc23)SC1=S [DN205781]
4. O=C1NC(=S)SC1Cc1cnc2ccccc2c1 (stereo not shown) [DN204302]

1: 46.16 % of control; 2: 25.883 % of control; 3: 52.99 % of control; 4: 47.38 % of control

Source: patent US20230129364A1
